# Experiment description: modulators of S6 phosphorylation in cells, primary screen, cell-based, A549, cytoblot, luminescence, serum-stimulated (AID 1158);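 further: serum-stimulated A549 lung adenocarcinoma cells; signal is phosphorylated S6 detected by cytoblot immunostaining with HRP secondary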
# Assay conditions: A549 phospho-S6 cytoblot, 5 h, higher = more signal
Recorded z-score split into classes low bracket = under 0.2, middle bracket = from 0.2 up to 0.8, high bracket = 0.8 and over

Classify this compound: C[C@@H]1CC[C@H]2C(=O)N3[C@@H](CC[C@@H](C)[C@@H]3c3cccc(N4CCOCC4)c3)C(=O)N2[C@H]1c1cccc(N2CCOCC2)c1
middle bracket

Continuing:
Entry CCCC=C(CCC)[C@@H](NC(=O)c1ccccc1)c1ccccc1 belongs to which category?
middle bracket

Sort into band: C=CCC(OC(C)=O)[C@@H]1[C@@H](N(Cc2ccc(-c3cccc(C(F)(F)F)c3)o2)C(=O)Cc2ccc(F)cc2)c2cc(OCCCO)ccc2N1C(=O)c1ccc(-c2ccccc2)cc1 (some centres undefined)
low bracket
